Hello, the source for this data is patent US20210238260, in case you need it.

Listing: kcat/KM of selected proteins
- TARGET: Factor X, P00742
- Sequence (P00742 whole entry, looked up): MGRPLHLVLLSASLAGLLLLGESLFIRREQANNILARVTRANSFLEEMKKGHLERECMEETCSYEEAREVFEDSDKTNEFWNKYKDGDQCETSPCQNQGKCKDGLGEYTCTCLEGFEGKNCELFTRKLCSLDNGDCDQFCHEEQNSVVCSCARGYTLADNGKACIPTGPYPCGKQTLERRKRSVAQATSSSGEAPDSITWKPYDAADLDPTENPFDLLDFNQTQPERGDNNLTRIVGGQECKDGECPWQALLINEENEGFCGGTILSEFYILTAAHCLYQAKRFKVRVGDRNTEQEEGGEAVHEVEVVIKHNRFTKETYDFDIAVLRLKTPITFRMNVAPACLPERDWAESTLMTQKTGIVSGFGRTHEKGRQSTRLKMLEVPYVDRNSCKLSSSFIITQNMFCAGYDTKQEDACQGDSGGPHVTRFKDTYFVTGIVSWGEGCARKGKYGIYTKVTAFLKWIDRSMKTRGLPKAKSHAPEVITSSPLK
MEASURE_NAME: kcat/KM

[[record]]
protein = "FIXa-Y155F/R318Y/R338E/T343R/R403E (protein) chain 1: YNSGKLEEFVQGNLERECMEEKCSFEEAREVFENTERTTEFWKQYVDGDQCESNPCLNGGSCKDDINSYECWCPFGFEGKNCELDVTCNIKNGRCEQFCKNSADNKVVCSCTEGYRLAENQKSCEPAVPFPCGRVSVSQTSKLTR chain 2: VVGGEDAKPGQFPWQVVLNGKVDAFCGGSIVNEKWIVTAAHCVETGVKITVVAGEHNIEETEHTEQKRNVIRIIPHHNYNAAINKYNHDIALLELDEPLVLNSYVTPICIADKEYTNIFLKFGSGYVSGWGRVFHKGYSALVLQYLRVPLVDRATCLESTKFRIYNNMFCAGFHEGGRDSCQGDSGGPHVTEVEGTSFLTGIISWGEECAMKGKYGIYTKVSEYVNWIKEKTKLT"
measure_name = "kcat/KM"
result = "2.6e+08 M⁻¹ s⁻¹"

[[record]]
protein = "FIXa-Y155F/R318Y/T343R/R403E/E410N (protein) chain 1: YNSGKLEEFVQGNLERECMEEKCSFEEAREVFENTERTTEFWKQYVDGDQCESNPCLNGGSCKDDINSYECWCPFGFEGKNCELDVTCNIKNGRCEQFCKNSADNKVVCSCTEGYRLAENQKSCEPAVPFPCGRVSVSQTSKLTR chain 2: VVGGEDAKPGQFPWQVVLNGKVDAFCGGSIVNEKWIVTAAHCVETGVKITVVAGEHNIEETEHTEQKRNVIRIIPHHNYNAAINKYNHDIALLELDEPLVLNSYVTPICIADKEYTNIFLKFGSGYVSGWGRVFHKGYSALVLQYLRVPLVDRATCLRSTKFRIYNNMFCAGFHEGGRDSCQGDSGGPHVTEVEGTSFLTGIISWGEECAMKGKYGIYTKVSEYVNWIKNKTKLT"
measure_name = "kcat/KM"
result = "2.6e+08 M⁻¹ s⁻¹"

